System: plasma protein
Test Description: Plasma protein binding, mouse
Format: in vitro ADME
Condition Parameters: plasma, read-out: Plasma Protein Binding % bound
Property: fraction unbound

# Molecule, fraction unbound
rows = [
    ("O=C(NC(c1ccc(F)cc1)c1ccc(Cl)cc1)C1CCN(CCOc2ccccc2)CC1 (centres unmarked) [Compound 42]", 0.007),
]

Shift focus to the following entry.
Q: Report fraction unbound for O=C(NC(c1ccc(Cl)cc1)c1ccccn1)C1CCN(CCOc2cc(F)ccc2F)CC1 (centres unmarked) [Compound 14] please.
A: 0.015

* * *

Assayed Target: human D2R/β-arrestin (Homo sapiens (Human), UniProt P14416)
Test Description: cell-based
Condition Parameters: cAMP Antagonist, CHO-K1 cell line expressing human D2R/β-arrestin; quinpirole used as agonist
Property: IC50; scope: individual molecules

# Molecule, IC50
measured = [
    ("COc1ccc(C(NC(=O)C2CCN(CCOc3ccccc3)CC2)c2ccc(Cl)cc2)cc1 (stereo not shown)", "10 to 30 µM"),
    ("CC(C)N(CC1CCN(CCOc2ccccc2F)CC1)C(c1ccc(Cl)cc1)c1ccccn1 (stereo not shown) [Compound 133]", "< 0.1 µM"),
    ("O=C(NC(c1ccc(Cl)cc1)c1ccccc1F)C1CCN(CCOc2cc(F)ccc2F)CC1 (stereo not shown)", "> 30 µM"),
]

Q: Report IC50 for CN(CC1CCN(CCOc2ccc(C(F)(F)F)cc2)CC1)C(c1ccc(Cl)cc1)c1ccccn1 (stereo not shown) please.
A: 1 to 10 µM

* * *

Assayed Target: D2 (Homo sapiens (Human), UniProt P14416)
Sequence (P14416 whole entry): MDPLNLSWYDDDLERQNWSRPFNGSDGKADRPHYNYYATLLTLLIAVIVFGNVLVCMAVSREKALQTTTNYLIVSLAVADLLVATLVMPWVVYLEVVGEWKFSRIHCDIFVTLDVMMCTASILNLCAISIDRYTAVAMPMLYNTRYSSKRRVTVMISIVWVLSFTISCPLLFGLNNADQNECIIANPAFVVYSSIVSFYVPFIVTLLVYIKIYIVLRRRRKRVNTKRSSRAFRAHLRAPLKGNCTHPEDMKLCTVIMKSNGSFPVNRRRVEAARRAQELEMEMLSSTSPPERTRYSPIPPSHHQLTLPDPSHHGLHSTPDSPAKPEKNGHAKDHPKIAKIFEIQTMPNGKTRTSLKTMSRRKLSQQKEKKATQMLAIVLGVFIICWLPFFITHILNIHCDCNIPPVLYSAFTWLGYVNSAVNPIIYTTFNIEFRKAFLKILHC
Test Description: D2 radioligand binding assay
pKi: −log10 of the molar value.
Property: pKi

Examples with answers:
# Compound, pKi
measured = [
    ("O=C(NC(c1ccc(Cl)cc1)c1ccccn1)C1CCN(CCn2ccc(=O)cc2)CC1 (stereo not drawn)", "4.52 to 5.00"),
    ("Clc1ccc(C(NCC2CCN(CCOc3ccccc3)CC2)c2ccccn2)cc1 (single isomer, unassigned) [Compound 114a]", "6.00 to 7.00"),
    ("O=C(NC(c1ccc(Cl)cc1)c1ccc(F)cn1)C1CCN(CCOc2ccccc2F)CC1 (stereo not drawn)", "6.00 to 7.00"),
    ("O=C(NC(c1ccc(F)cc1)c1ccc(Cl)cc1)C1CCN(CCOc2ccccc2)CC1 (stereo not drawn)", "6.00 to 7.00"),
    ("CN(CC1CCN(CCOc2ccccc2F)CC1)C(c1ccc(Cl)cc1)c1ccccn1 (stereo not drawn) [Compound 72]", "> 7.00"),
]

Q: Report pKi for O=C(NC(c1ccc2c(c1)OC(F)(F)O2)c1ccccn1)C1CCN(CCOc2ccccc2F)CC1 (single isomer, unassigned) [Compound 94a] please.
A: 6.00 to 7.00

* * *

Property: pIC50; scope: individual compounds
Assayed Target: human D2R/β-arrestin (Homo sapiens (Human), UniProt P14416)
Test Description: cell-based
Condition Parameters: β-arrestin Antagonist, CHO-K1 cell line expressing human D2R/β-arrestin; quinpirole used as agonist
pIC50: −log10 of the molar value.

# Compound, Experimental Result
rows = [
    ("Fc1ccccc1OCCN1CCC(CNC(c2ccc3c(c2)OCO3)c2ccccn2)CC1 (single isomer, unassigned) [Compound 139b]", "5.00 to 6.00"),
]

Shift focus to the following entry.
Q: Report pIC50 for O=C(NC(c1ccc(Cl)cc1)c1ccncc1F)C1CCN(CCOc2ccccc2F)CC1 (single isomer, unassigned) [Compound 91b] please.
A: 6.00 to 7.00
